MEASURED TARGET: NHERF4_4, Q86UT5
Sequence (Q86UT5 464-550): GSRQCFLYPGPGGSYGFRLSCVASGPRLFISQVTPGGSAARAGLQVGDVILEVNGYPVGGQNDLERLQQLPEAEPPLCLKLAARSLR
ASSAY COMMENT: holdup assay
Parameters: key: below the threshold = too weak to quantify, mostly under pKd 3.1 to 4
SETUP CONDITIONS: plain residues with an end cap or a label only (N-terminal biotin on a linker: ado-ado)
QUANTITY NAME: pKd

Below, each entry is followed by its recorded pKd result.
SNAGNTATKA [NOSTRIN, Q8IVI9] ... below the threshold
SARSRLSSNL [HCN2, Q9UL51] ... below the threshold
AKPSRISTVV [IQSEC2, Q5JU85] ... below the threshold
RHGSCVETSL [TMEM151B, Q8IW70] ... below the threshold
RRLPGKETMA [GRIK2, Q13002] ... below the threshold

Which pKd is reported for this binder? QSARLWETSI [ADAM22, Q9P0K1] 3.91

Which pKd is reported for this binder? LSEFKAMDSI [CTNNA1, P35221] below the threshold

Which pKd is reported for this binder? VRNLPESEEL [MYOZ3, Q8TDC0] 3.85
